pIC50: −log10 of the molar value.
Recorded pIC50 values (Serine/threonine-protein kinase ULK1 (Homo sapiens, UniProt O75385)) are given below.

O=C1NCCS(=O)(=O)c2cc(-c3nc(Nc4cc5c(cc4F)CNCC5)ncc3C(F)(F)F)sc21 [US20250144094, Example 134] :: > 8.00

// below: pIC50 requested for another molecule
Q: Quick check: pIC50 of CS(=O)(=O)c1csc(-c2nc(Nc3cn(C4CNC4)nc3C3CC3)ncc2C(F)(F)F)c1 [US20250144094, Example 130] ?
Result: > 8.00

* * *

I'd appreciate it if you could supply pIC50 values for the items below.
Molecular target: Serine/threonine-protein kinase ULK1 [1-649] (UniProt O75385)
Sequence (O75385 1-649): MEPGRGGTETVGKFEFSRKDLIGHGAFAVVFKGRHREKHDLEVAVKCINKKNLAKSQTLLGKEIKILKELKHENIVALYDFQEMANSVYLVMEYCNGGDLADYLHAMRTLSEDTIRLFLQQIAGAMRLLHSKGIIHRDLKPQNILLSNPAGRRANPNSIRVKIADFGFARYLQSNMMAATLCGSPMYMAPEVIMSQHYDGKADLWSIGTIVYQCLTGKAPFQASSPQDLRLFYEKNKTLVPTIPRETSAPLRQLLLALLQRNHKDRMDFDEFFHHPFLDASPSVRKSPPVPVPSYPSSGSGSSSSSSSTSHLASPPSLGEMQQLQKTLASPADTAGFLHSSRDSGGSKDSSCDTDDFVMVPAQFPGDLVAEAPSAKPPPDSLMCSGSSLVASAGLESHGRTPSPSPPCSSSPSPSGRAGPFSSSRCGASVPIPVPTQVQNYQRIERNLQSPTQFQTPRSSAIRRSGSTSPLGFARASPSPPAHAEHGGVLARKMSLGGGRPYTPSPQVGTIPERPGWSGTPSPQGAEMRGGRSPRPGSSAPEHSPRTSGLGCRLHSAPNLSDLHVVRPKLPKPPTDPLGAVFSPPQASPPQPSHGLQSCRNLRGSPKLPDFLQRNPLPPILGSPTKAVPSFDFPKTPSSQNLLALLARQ
pIC50: −log10 of the molar value.

O=C1c2sc(-c3nc(Nc4cc5c(cc4C4CC4)CN(CCF)CC5)ncc3C(F)(F)F)cc2S(=O)(=O)CCN1C1COC1 :: > 8.30
O=C1c2sc(-c3nc(Nc4ccc(N5CCN(CC6CC6)CC5)cc4C4CC4)ncc3C(F)(F)F)cc2S(=O)(=O)CCN1C1CC1 :: > 8.30
C[C@@H]1CN(c2ccc(Nc3ncc(C(F)(F)F)c(-c4cc5c(s4)C(=O)N(C)CCS5(=O)=O)n3)c(C3CC3)c2)CCN1 :: > 8.30
CCc1cc(C2CCNCC2)ccc1Nc1ncc(C(F)(F)F)c(-c2cc3c(s2)C(=O)N(C2CC2)CCS3(=O)=O)n1 :: 8.12

Continue with the compound presented below.
Q: Quick one: pIC50 for CN1CCS(=O)(=O)c2cc(-c3nc(Nc4ccc(N5CC6CC(C5)N6)cc4C4CC4)ncc3C(F)(F)F)sc2C1=O ?
Result: > 8.30
